Could you please report measured Plant response rating, Ryegrass, Italian for the items listed next?
test system: Ryegrass, Italian (Italian ryegrass, Lolium multiflorum); experiment: Test A preemergence, Ryegrass, Italian; format: in vivo; details: Preemergence, 125 g ai/ha; visual injury, 0 to 100 scale (0 no effect, 100 complete control), approx. 10 days
Reply briefly: the number, and no unit.

**Q:** Item `Cc1cc(Cl)c(C(=O)N2CCOCC2)cc1N(S(=O)(=O)C(F)(F)F)S(=O)(=O)C(F)(F)F` : provide Plant response rating, Ryegrass, Italian
**A:** 60

**Q:** Identify measured Plant response rating, Ryegrass, Italian corresponding to `Cc1cc(Cl)c(N(S(=O)(=O)C(F)(F)F)S(=O)(=O)C(F)(F)F)cc1C(=O)N1CCC(Cl)CC1`
**A:** 30

**Q:** Return the recorded Plant response rating, Ryegrass, Italian value; entry: `Cc1cc(C)c(C2=NOC(C)(C)C2)cc1NS(=O)(=O)C(F)(F)F`
**A:** 80

**Q:** Indicate its recorded Plant response rating, Ryegrass, Italian; the compound in question is `Cc1cc(F)c(C(=O)N2CCOCC2)cc1NS(=O)(=O)C(F)(F)F`
**A:** 40

**Q:** Give a short answer stating reported Plant response rating, Ryegrass, Italian for `Cc1cc(Cl)c(C(=O)N(C)C)cc1NS(=O)(=O)C(F)(F)F` .
**A:** 90

**Q:** Find the measured Plant response rating, Ryegrass, Italian of `Cc1cc(Cl)c(NS(=O)(=O)C(F)(F)F)cc1C(=O)N1CCC(F)CC1` and report it.
**A:** 60

**Q:** Please give measured Plant response rating, Ryegrass, Italian of the following entry: `COC(=O)N(c1cc(N2CCC3(CCCCC3)C2=O)c(C)cc1C)S(=O)(=O)C(F)(F)F`
**A:** 0

**Q:** Tell me Plant response rating, Ryegrass, Italian reported for `CC(=O)OCN(c1cc(C2=NOC3(CCCC3)C2)c(C)cc1C)S(=O)(=O)C(F)(F)F`
**A:** 100

====

tested on: corn (Zea mays); test: Test A postemergence, corn; assay type: in vivo; settings: Zea mays, post-emergence, 240 h; Postemergence, 125 g ai/ha; visual injury approx. 10 days; 0 to 100 scale (0 no effect, 100 complete control)
Would you mind telling me the reported Corn plant response rating (crop injury, 0 = no effect, 100 = complete kill) at 125 g/ha of each entry?
Supply the numeric figure in %, leaving out any unit text.

**Q:** Tell me its Corn plant response rating (crop injury, 0 = no effect, 100 = complete kill) at 125 g/ha on corn (Zea mays): `Cc1cc(Cl)c(NS(=O)(=O)C(F)(F)F)cc1C(=O)N1CCCCC1`
**A:** 0

**Q:** Find Corn plant response rating (crop injury, 0 = no effect, 100 = complete kill) at 125 g/ha for `Cc1cc(C)c(N(COC(=O)C(C)(C)C)S(=O)(=O)C(F)(F)F)cc1C1=NOC2(CCCC2)C1` on corn (Zea mays) and write it down.
**A:** 0

**Q:** Fill in Corn plant response rating (crop injury, 0 = no effect, 100 = complete kill) at 125 g/ha for `Cc1cc(Cl)c(NS(=O)(=O)C(F)(F)F)cc1C(=O)N1CCOCC1` tested with corn (Zea mays).
**A:** 0

**Q:** Tell me its Corn plant response rating (crop injury, 0 = no effect, 100 = complete kill) at 125 g/ha on corn (Zea mays): Cc1cc(C)c(C2=NOC3COCCC23)cc1NS(=O)(=O)C(F)(F)F (centres unmarked)
**A:** 50

**Q:** # return Corn plant response rating (crop injury, 0 = no effect, 100 = complete kill) at 125 g/ha of `Cc1cc(C)c(C2=NO[C@@H]3CCC[C@H]23)cc1NS(=O)(=O)C(F)(F)F` (system: corn (Zea mays))
**A:** 20
